test system: zebrafish larvae; assay: Zebrafish larvae exposure, metabolite identification by LC-HRMS/MS; settings: 100 µM parent NPS in medium, larvae 4 dpf, 24 h, larvae extract, one replicate of n = 3; n.d. = not detected
resultType: Absolute peak area, Zebrafish larvae [100 µM]
Could you respond with only the numeric value?

[ask] Can you look up Absolute peak area, Zebrafish larvae [100 µM] on zebrafish larvae for COc1ccccc1CNC(C)Cc1ccc(OC)c(OC)c1 (stereo not drawn) ?
[reply] 6.22E+09

[ask] What do we get for CN1C[C@H](C(=O)O)C=C2c3cccc4[nH]cc(c34)C[C@H]21 ?
[reply] 3.63E+05

[ask] What do we get for CCN(CC)C(=O)[C@@H]1C=C2c3cccc4c3C(O)(C[C@H]2N(C)C1)C(=O)N4 (stereo partly drawn) [ML18, 2−oxo−3−hydroxy LSD] ?
[reply] 6.93E+06

[ask] What do we get for COc1ccc(CC(C)N(O)Cc2ccccc2O)cc1OC (stereo not drawn) ?
[reply] 3.57E+05

[ask] What do we get for CCCCC(N)C(=O)c1ccc(F)cc1 (stereo not drawn) ?
[reply] 4.83E+05

[ask] What do we get for CCN(CC)C(=O)C1C=C2c3cccc4[nH]cc(c34)C(O)C2NC1 (stereo not drawn) ?
[reply] 6.10E+04

[ask] What do we get for CCCCC(C(O)c1ccc(F)cc1)N1CCCC1 (stereo not drawn) ?
[reply] 2.98E+07

[ask] What do we get for CCCCC(C(=O)c1ccc(F)cc1)N1CCCC1 (stereo not drawn) [Metabolite 4F-PHP, 4-fluoro-alpha-pyrrolidinohexiophenone] ?
[reply] 4.36E+09

[ask] What do we get for CCNC(=O)[C@@H]1C=C2c3cccc4c3c(cn4C(=O)CC)C[C@H]2N(C)C1 ?
[reply] 1.48E+08
